- condition.set: buffer; pH 7.4; 6.0 h; 150.0 µM
We use 7 µg/mL as the dividing line for solubility kinetic: on or above the line is YES, below is NO.

QUERY: Check if solubility kinetic >= 7 µg/mL (inclusive). Item: CN(c1ncccc1CNc1nc(Nc2ccc3c(c2)CC(=O)N3)ncc1C(F)(F)F)S(C)(=O)=O
RESULT: YES

QUERY: Check if solubility kinetic >= 7 µg/mL (inclusive). Item: Cc1cc(NS(=O)(=O)c2ccc(NC(=O)Cc3ccc(Cl)c(Cl)c3)cc2)n(C)n1
RESULT: YES

QUERY: Check if solubility kinetic >= 7 µg/mL (inclusive). Item: CC(=O)N1CCN(c2ccc(OCc3nn(C)c(C)c3-c3cccc4c(CCCOc5cccc6ccccc56)c(C(=O)O)n(Cc5cccnc5)c34)cc2)CC1
RESULT: YES

QUERY: Check if solubility kinetic >= 7 µg/mL (inclusive). Item: COCCCNC(=O)c1cc2cc(S(=O)(=O)N(C)C)ccc2n1C
RESULT: YES

QUERY: Check if solubility kinetic >= 7 µg/mL (inclusive). Item: O=C(Nc1ccc(C(=O)N2CCCC2)cc1)c1ccccc1F
RESULT: YES

QUERY: Check if solubility kinetic >= 7 µg/mL (inclusive). Item: CCNc1oc(-c2cccc3ccccc23)nc1C#N
RESULT: NO

QUERY: Check if solubility kinetic >= 7 µg/mL (inclusive). Item: Cc1ccccc1C(=O)N1CCc2cc(N3CCC(NC(=O)Cc4ccccc4)C3)ccc21 (stereo not drawn)
RESULT: NO

QUERY: Check if solubility kinetic >= 7 µg/mL (inclusive). Item: CC(=O)c1c(C)c(C(=O)Nc2cccc([S+](=O)([O-])N(C)C)c2)n(C)c1C
RESULT: YES

QUERY: Check if solubility kinetic >= 7 µg/mL (inclusive). Item: COc1ccccc1CNc1ccc(N2CCCCC2)cc1
RESULT: YES

QUERY: Check if solubility kinetic >= 7 µg/mL (inclusive). Item: O=C(Cc1ccc(O)cc1)N1CC(CNc2ccccc2)C2(C1)CN(c1ccccc1)C2 (stereo not drawn)
RESULT: NO

QUERY: Check if solubility kinetic >= 7 µg/mL (inclusive). Item: COc1ccc(Cn2c(=O)[nH]c3cc(C(=O)NCCCN4CCCCC4)ccc3c2=O)cc1
RESULT: YES

QUERY: Check if solubility kinetic >= 7 µg/mL (inclusive). Item: O=[S+]([O-])(Nc1ccccc1)c1ccc(NCc2cccc(C(F)(F)F)c2F)cc1
RESULT: NO

QUERY: Check if solubility kinetic >= 7 µg/mL (inclusive). Item: Cc1ccc(S(=O)(=O)Nc2cnccc2C(=O)Nc2ccc(S(=O)(=O)Nc3nccs3)cc2)cc1
RESULT: YES

QUERY: Check if solubility kinetic >= 7 µg/mL (inclusive). Item: CCN(CC)CCCNC(=O)c1oc2c(c1C)-c1nn(Cc3ccc(Cl)cc3)cc1CC2
RESULT: YES

QUERY: Check if solubility kinetic >= 7 µg/mL (inclusive). Item: COc1cc(N2CCC(N3CCN(C)CC3)CC2)ccc1Nc1ncc(Cl)c(Nc2ccccc2P(C)(C)=O)n1
RESULT: YES

QUERY: Check if solubility kinetic >= 7 µg/mL (inclusive). Item: Cc1cc(C)nc(NC(=S)N2CCN(Cc3cccc(C(F)(F)F)c3)CC2)c1
RESULT: YES

QUERY: Check if solubility kinetic >= 7 µg/mL (inclusive). Item: O=C1CCCC2=C1C(c1[nH]ncc1Cl)N=C(Nc1nc3cccc(Cl)c3o1)N2 (stereo not drawn)
RESULT: NO

QUERY: Check if solubility kinetic >= 7 µg/mL (inclusive). Item: Cc1ccccc1S(=O)(=O)Nc1cnccc1C(=O)Nc1nc(-c2ccccc2)cs1
RESULT: YES

QUERY: Check if solubility kinetic >= 7 µg/mL (inclusive). Item: COc1ccc(-c2csc(CCn3nc(C)c4c(C(F)(F)F)cc(=O)[nH]c43)n2)cc1
RESULT: NO

QUERY: Check if solubility kinetic >= 7 µg/mL (inclusive). Item: O=C(O)c1cnc(-c2ccc(F)cc2)nc1-c1ccncc1
RESULT: YES

QUERY: Check if solubility kinetic >= 7 µg/mL (inclusive). Item: Cc1ccnc(NC(=S)N2CCN(c3cc(C(F)(F)F)cc(C(F)(F)F)c3)CC2)c1
RESULT: NO

QUERY: Check if solubility kinetic >= 7 µg/mL (inclusive). Item: CCCCCn1c(=O)[nH]c2cc(C(=O)NCCCN3CCCCC3)ccc2c1=O
RESULT: YES
